Numbers sourced from patent US9469650B2.

Tested on: OVCAR-8
Listing of entries alongside the reported CC50.
The reply should be a number in µM, with the unit left off.

C=C1C(=O)O[C@H]2[C@H]1CC/C(COC(=O)N1CCC(F)(F)CC1)=C\CC[C@@]1(C)O[C@@H]21    38.5
C=C1C(=O)O[C@H]2[C@H]1CC/C(COC(=O)CCC(=O)N1CCC(C)CC1)=C\CC[C@@]1(C)O[C@@H]21    42.9
C=C1C(=O)O[C@H]2[C@H]1CC/C(COC(=O)NC)=C\CC[C@@]1(C)O[C@@H]21    57.2

Entry C=C1C(=O)O[C@H]2[C@H]1CC/C(COC(=O)NCCN1CCCCC1)=C\CC[C@@]1(C)O[C@@H]21 , OVCAR-8 data, CC50 value: 58.4

Entry C=C1C(=O)O[C@H]2[C@H]1CC/C(COC(=O)N1CCN(C)CC1)=C\CC[C@@]1(C)O[C@@H]21 , OVCAR-8 data, CC50 value: 80.6

----------
System: HOP-62
Assay: panel of 60 human tumor cell lines, growth inhibition (Non-Small Cell Lung Cancer)
Settings: HOP-62; Log10 Concentration −7.0
endpoint.label: Percent Growth (%)
The reply should be a number in %, with the unit left off.

C=C1C(=O)O[C@H]2[C@H]1CC/C(COC(=O)CCC(=O)NCc1ccc(Cl)nc1)=C\CC[C@@]1(C)O[C@@H]21 [JVM 96]    93
C=C1C(=O)O[C@H]2[C@H]1CC/C(COC(=O)N1CCC(F)(F)CC1)=C\CC[C@@]1(C)O[C@@H]21 [JVM 2-66]    92
C=C1C(=O)O[C@H]2[C@H]1CC/C(COC(=O)NCCO)=C\CC[C@@]1(C)O[C@@H]21 [JVM 2-50]    90
C=C1C(=O)O[C@H]2[C@H]1CC/C(COC(=O)CCC(=O)N1CCC(C)CC1)=C\CC[C@@]1(C)O[C@@H]21 [JVM 2-70]    92
C=C1C(=O)O[C@H]2[C@H]1CC/C(COC(=O)NCCc1ccccn1)=C\CC[C@@]1(C)O[C@@H]21 [JVM 61]    102

Could you now look at the following compound, please?
Query C=C1C(=O)O[C@H]2[C@H]1CC/C(COC(=O)NC)=C\CC[C@@]1(C)O[C@@H]21 [JVM 2-57] yields Percent Growth of 86

----------
Listing of entries alongside the reported CC50.
System: TK-10
Experiment: panel of 60 human tumor cell lines, growth inhibition (Renal Cancer)
Conditions: Homo sapiens, TK-10, read-out: LC50
The reply should be a number in µM, with the unit left off.

Example entries and their recorded answers appear below.
C=C1C(=O)O[C@H]2[C@H]1CC/C(COC(=O)OC)=C\CC[C@@]1(C)O[C@@H]21 [JVM 2-40]    32.9
C=C1C(=O)O[C@H]2[C@H]1CC/C(COC(=O)OCCN(C)C)=C\CC[C@@]1(C)O[C@@H]21 [JVM 2-35]    43.8
C=C1C(=O)O[C@H]2[C@H]1CC/C(COC(=S)n1ccnc1)=C\CC[C@@]1(C)O[C@@H]21 [JVM 66]    58.2

Could you now look at the following molecule, please?
Query C=C1C(=O)O[C@H]2[C@H]1CC/C(COC(=O)Nc1n[nH]c(SC)n1)=C\CC[C@@]1(C)O[C@@H]21 [JVM 64] yields CC50 of 27.4

----------
Entries with reported CC50 on 786-0
The reply should be a number in µM, with the unit left off.

Entry C=C1C(=O)O[C@H]2[C@H]1CC/C(COC(=O)CCC(=O)N1CCC(C)CC1)=C\CC[C@@]1(C)O[C@@H]21 , 786-0 data, CC50 value: 58

----------
Test system: SNB-19
endpoint.label: CC50

C=C1C(=O)O[C@H]2[C@H]1CC/C(COC(=O)NC)=C\CC[C@@]1(C)O[C@@H]21    > 100 µM
C=C1C(=O)O[C@H]2[C@H]1CC/C(COC(=O)NCCO)=C\CC[C@@]1(C)O[C@@H]21    > 100 µM
C=C1C(=O)O[C@H]2[C@H]1CC/C(COC(=O)NCCN1CCCCC1)=C\CC[C@@]1(C)O[C@@H]21    73.1 µM

Entry C=C1C(=O)O[C@H]2[C@H]1CC/C(COC(=O)N1CCC(F)(F)CC1)=C\CC[C@@]1(C)O[C@@H]21 , SNB-19 data, CC50 value: 62.7 µM

Entry C=C1C(=O)O[C@H]2[C@H]1CC/C(COC(=O)CCC(=O)N1CCC(C)CC1)=C\CC[C@@]1(C)O[C@@H]21 , SNB-19 data, CC50 value: 63.4 µM

Entry C=C1C(=O)O[C@H]2[C@H]1CC/C(COC(=O)N1CCN(C)CC1)=C\CC[C@@]1(C)O[C@@H]21 , SNB-19 data, CC50 value: > 100 µM

----------
Tested on: MDA-MB-435
Assay: panel of 60 human tumor cell lines, growth inhibition (Melanoma)
Conditions: MDA-MB-435; Log10 Concentration −4.0
endpoint.label: Percent Growth (%)
The reply should be a number in %, with the unit left off.

Example entries and their recorded answers appear below.
C=C1C(=O)O[C@H]2[C@H]1CC/C(COC(=O)CCC(=O)NCc1ccc(Cl)nc1)=C\CC[C@@]1(C)O[C@@H]21 [JVM 96]    −72
C=C1C(=O)O[C@H]2[C@H]1CC/C(COC(=O)CCC(=O)N1CCC(C)CC1)=C\CC[C@@]1(C)O[C@@H]21 [JVM 2-70]    −72
C=C1C(=O)O[C@H]2[C@H]1CC/C(COC(=O)NC)=C\CC[C@@]1(C)O[C@@H]21 [JVM 2-57]    −81

Query C=C1C(=O)O[C@H]2[C@H]1CC/C(COC(=O)N1CCN(C)CC1)=C\CC[C@@]1(C)O[C@@H]21 [JVM 2-44] yields Percent Growth of −80

----------
Listing of entries alongside the reported IC (TGI).
System: U251
Assay: panel of 60 human tumor cell lines, growth inhibition (CNS Cancer)
Conditions: Homo sapiens, U-251, read-out: TGI
The reply should be a number in µM, with the unit left off.

Example entries and their recorded answers appear below.
C=C1C(=O)O[C@H]2[C@H]1CC/C(COC(=O)NCCc1ccccn1)=C\CC[C@@]1(C)O[C@@H]21 [JVM 61]    25.4
C=C1C(=O)O[C@H]2[C@H]1CC/C(COC(=O)OCCN(C)C)=C\CC[C@@]1(C)O[C@@H]21 [JVM 2-35]    45.2
C=C1C(=O)O[C@H]2[C@H]1CC/C(COC(=O)OC)=C\CC[C@@]1(C)O[C@@H]21 [JVM 2-40]    30.2

Query C=C1C(=O)O[C@H]2[C@H]1CC/C(COC(=O)Nc1n[nH]c(SC)n1)=C\CC[C@@]1(C)O[C@@H]21 [JVM 64] yields IC (TGI) of 15.8

----------
Tested on: ACHN
Assay: panel of 60 human tumor cell lines, growth inhibition (Renal Cancer)
Details: read-out: LC50
endpoint.label: CC50 (µM)
The reply should be a number in µM, with the unit left off.

Query C=C1C(=O)O[C@H]2[C@H]1CC/C(COC(=O)N1CCC(F)(F)CC1)=C\CC[C@@]1(C)O[C@@H]21 yields CC50 of 27.4

----------
Test system: HS 578T
Assay: panel of 60 human tumor cell lines, growth inhibition (Breast Cancer)
Settings: Homo sapiens, Hs-578T, read-out: TGI
endpoint.label: IC (TGI) (µM)
The reply should be a number in µM, with the unit left off.

C=C1C(=O)O[C@H]2[C@H]1CC/C(COC(=O)CCC(=O)NCc1ccc(Cl)nc1)=C\CC[C@@]1(C)O[C@@H]21    63.7
C=C1C(=O)O[C@H]2[C@H]1CC/C(COC(=O)Nc1n[nH]c(SC)n1)=C\CC[C@@]1(C)O[C@@H]21    8.75

Could you now look at the following compound, please?
Query C=C1C(=O)O[C@H]2[C@H]1CC/C(COC(=O)OCCCN1CCCCC1)=C\CC[C@@]1(C)O[C@@H]21 yields IC (TGI) of 26.8

----------
System: NCI-H460
Assay: panel of 60 human tumor cell lines, growth inhibition (Non-Small Cell Lung Cancer)
Conditions: NCI-H460; Log10 Concentration −7.0
Listing of entries alongside the reported Percent Growth.
The reply should be a number in %, with the unit left off.

Example entries and their recorded answers appear below.
C=C1C(=O)O[C@H]2[C@H]1CC/C(COC(=O)CCC(=O)NCc1ccc(Cl)nc1)=C\CC[C@@]1(C)O[C@@H]21    102
C=C1C(=O)O[C@H]2[C@H]1CC/C(COC(=O)N1CCC(F)(F)CC1)=C\CC[C@@]1(C)O[C@@H]21    101
C=C1C(=O)O[C@H]2[C@H]1CC/C(COC(=O)N1CCN(C)CC1)=C\CC[C@@]1(C)O[C@@H]21    101

Query C=C1C(=O)O[C@H]2[C@H]1CC/C(COC(=O)NC)=C\CC[C@@]1(C)O[C@@H]21 yields Percent Growth of 103
